Entries annotated with measured activity (Tm shift, normalised)
# experimental.system: Fibroblast growth factor 22 (Homo sapiens) (UniProt Q9HCT0)
# Sequence (Q9HCT0 whole entry, looked up): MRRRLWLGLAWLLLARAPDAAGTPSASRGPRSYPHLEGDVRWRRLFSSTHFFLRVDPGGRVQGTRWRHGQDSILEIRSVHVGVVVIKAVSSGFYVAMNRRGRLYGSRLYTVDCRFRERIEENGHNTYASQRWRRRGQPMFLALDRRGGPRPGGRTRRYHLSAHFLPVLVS
# measurement.notes: FGF22 ligand-induced thermal stabilization – biophysical, thermal shift, single point, FGF22 synaptogenesis inhibitor project, primary screen (AID 651658)
# conditions.used: recombinant FGF22 thermal shift, SYPRO orange fluorescence, at 9.99 µM, active compounds read high
About 5,100 (1.5%) of roughly 340,000 compounds were called active. The list comes from a sample in which actives are over-represented; it also holds close analogues and randomly drawn compounds.
Report the value in % with no unit label.

Example cases with answers are listed next.
molecule: O=C(Cc1ccccc1)N1CCCCN2[C@H](CO)[C@H](c3ccc(C#Cc4ccccc4)cc3)[C@H]2C1
value.observed: -0.682

molecule: COC(=O)[C@@H]1[C@@H](CO)[C@@H]2Cn3c(ccc(C4=CCCCC4)c3=O)[C@H]1N2CC1CC1
value.observed: 0.126

molecule: CCN(CC)C(=O)[C@@H]1C=C2c3cccc4[nH]c(Br)c(c34)C[C@H]2N(C)C1
value.observed: 0.114

molecule: CC(CC(C#N)(c1ccccc1)c1ccccc1)N1CCCCC1 (stereo not given)
value.observed: 43.4

Shift focus to the following entry.
Item c1ccc(C(CN2CCCCC2)c2ccccc2)cc1 ; assay system Fibroblast growth factor 22 (Homo sapiens) (UniProt Q9HCT0); activity (Tm shift, normalised) reported as -0.37

----------
# experimental.system: Fibroblast growth factor 22 (Homo sapiens) (UniProt Q9HCT0)
# measurement.notes: FGF22 ligand-induced thermal stabilization – biophysical, thermal shift, single point, FGF22 synaptogenesis inhibitor project, primary screen (AID 651658)
# conditions.used: recombinant FGF22 thermal shift, SYPRO orange fluorescence, at 9.99 µM
The campaign covered roughly 340,000 compounds. About 5,100 (1.5%) were called active.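 Rule for the calls: active = mean Tm shift, scaled 0 neutral to 100 positive control, at about 1.3% or above, every replicate too (limit read from the data); inconclusive = no clear call, values can overlap the other calls; inactive = the rest.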 The sample as a whole holds a higher share of actives than the screen did.
Pick one: yes (1) for active, no (0) for inactive

Before answering, review these 5 worked examples.
molecule: COC(=O)[C@H]1[C@H](CO)[C@H]2Cn3c(ccc(-c4ccccc4F)c3=O)[C@@H]1N2C(=O)C1CCC1
class.name: no (0)
//
molecule: C[C@]12CCC3C(CC[C@H]4[C@H](O)[C@H](O)CC[C@]34C)C1CCC2=O (some centres undefined)
class.name: no (0)
//
molecule: O=C(c1ccccc1[N+](=O)[O-])N1CCC2(CC1)OCCO2
class.name: no (0)
//
molecule: O=C(O)[C@H]1[C@H](CO)[C@H]2Cn3c(ccc(-c4ccccc4)c3=O)[C@@H]1N2S(=O)(=O)c1ccccc1F
class.name: no (0)
//
molecule: COc1cccc(-c2ccc3n(c2=O)C[C@@H]2[C@@H](CO)[C@H](C(=O)O)[C@H]3N2C(=O)c2cnccn2)c1
class.name: no (0)

Which outcome did this test record for the molecule O=C(c1ccccc1)C(O)(CN1CCCCC1)c1ccccc1 (centres undefined) ?
no (0)

Which outcome did this test record for the molecule CC=C(C)C(=O)OC1CCN2CC=C(COC(=O)C(O)(C(C)OC)C(C)(C)O)C12 (centres undefined) ?
yes (1)

Which outcome did this test record for the molecule Cc1ccc(-c2cc(C(=O)N3CCC4(CC3)OCCO4)no2)cc1 ?
yes (1)

Which outcome did this test record for the molecule Cc1cccc(-n2c(C)nc3cc(C(=O)N4CCC5(CC4)OCCO5)ccc32)c1 ?
no (0)
